So I've got a bunch of binders here, and I need their In vitro activity (%) vs. GLP-1, cAMP EC50 values.
target: human GLP-1 receptor (human, UniProt P43220 24-463); assay: cell-based or functional assay
Bridges are numbered along the chain shown (N, C = ends). Where no end group is shown, it is not given here. [ ]: non-standard residue; d: D form. The star is where a group is joined. Acetyl(2-(4-imidazolyl)) = O=C(Cc1c[nH]cn1)*; Aib = CC(C)(N)C(=O)O
Express your answer in %, writing the number without its unit.

I'd like to know its In vitro activity (%) vs. GLP-1, cAMP EC50. The binder in question is H[Aib]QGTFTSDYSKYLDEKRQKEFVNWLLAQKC (bridge 16-20) [triple agonist of SEQ ID NO: 34]
19.1

I'd like to know its In vitro activity (%) vs. GLP-1, cAMP EC50. The binder in question is HGQGTFTSDCSKYLDGQRAQDFVNWLLAGGPSSGAPPPS [triple agonist of SEQ ID NO: 48]
1.5

I'd like to know its In vitro activity (%) vs. GLP-1, cAMP EC50. The binder in question is {Acetyl(2-(4-imidazolyl))}-[Aib]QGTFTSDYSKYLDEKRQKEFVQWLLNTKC (bridge 15-19) [triple agonist of SEQ ID NO: 88]
9.6
